- Tested on: S. aureus COL (MRSA)
- test-context: Table S2; […] MH, pH 7.4
Where a SMILES comes first, the peptide text is derived from it. [ ]: non-standard residue; d: D form. Nleu = CC(C)CNCC(=O)O; Nlys = NCCCCNCC(=O)O
Give measured MIC S. aureus COL (MRSA) […] 7.4 for each item. Keep answers brief.

Given the entry CC(C)C[C@H](NC(=O)CN(CC(C)C)C(=O)[C@H](CCCCN)NC(=O)CNCCCCN)C(=O)N(CCCCN)CC(=O)N[C@@H](CC(C)C)C(=O)N(CC(=O)N[C@@H](CCCCN)C(=O)N(CC(=O)N[C@@H](CC(C)C)C(=O)N(CC(N)=O)CC(C)C)CC(C)C)CC(C)C [EB10, kKlLkLlKlLl] (H-[Nlys]K[Nleu]L[Nlys]L[Nleu]K[Nleu]L[Nleu]-NH2) , report its measured MIC S. aureus COL (MRSA) […] 7.4.
32 µg/mL

Fill in: MIC S. aureus COL (MRSA) […] 7.4 of CC(C)C[C@H](NC(=O)[C@H](CC(C)C)NC(=O)[C@H](CCCCN)NC(=O)[C@@H](N)CCCCN)C(=O)N[C@@H](CCCCN)C(=O)N[C@@H](CC(C)C)C(=O)N[C@@H](CC(C)C)C(=O)N[C@@H](CCCCN)C(=O)N(CC(=O)N(CC(=O)N(CC(N)=O)CC(C)C)CC(C)C)CC(C)C [EB3] (H-KKLLKLLK[Nleu][Nleu][Nleu]-NH2) is ___
32 µg/mL

Would you kindly share the measured MIC S. aureus COL (MRSA) […] 7.4 for CC(C)C[C@H](NC(=O)[C@H](CCCCN)NC(=O)CNCCCCN)C(=O)N[C@@H](CC(C)C)C(=O)N[C@@H](CCCCN)C(=O)N[C@@H](CC(C)C)C(=O)N[C@@H](CC(C)C)C(=O)N[C@@H](CCCCN)C(=O)N[C@@H](CC(C)C)C(=O)N[C@@H](CC(C)C)C(=O)N(CC(N)=O)CC(C)C [EB1] (H-[Nlys]KLLKLLKLL[Nleu]-NH2; N-terminus assumed) ?
2 µg/mL

Tell me the measured MIC S. aureus COL (MRSA) […] 7.4 of CC(C)CN(CC(N)=O)C(=O)CN(CC(C)C)C(=O)CN(CC(C)C)C(=O)CN(CCCCN)C(=O)CN(CC(C)C)C(=O)CN(CC(C)C)C(=O)CN(CCCCN)C(=O)CN(CC(C)C)C(=O)CN(CC(C)C)C(=O)CN(CCCCN)C(=O)CNCCCCN [EB11, kkllkllklll] (H-[Nlys][Nlys][Nleu][Nleu][Nlys][Nleu][Nleu][Nlys][Nleu][Nleu][Nleu]-NH2) , please.
> 32 µg/mL

Param item = CC(C)C[C@H](NC(=O)CN(CC(C)C)C(=O)[C@H](CC(C)C)NC(=O)CN(CCCCN)C(=O)[C@H](CC(C)C)NC(=O)CN(CC(C)C)C(=O)[C@H](CCCCN)NC(=O)CN(CC(C)C)C(=O)[C@H](CC(C)C)NC(=O)CN(CCCCN)C(=O)[C@@H](N)CCCCN)C(N)=O [EB9, KkLlKlLkLlL] (H-K[Nlys]L[Nleu]K[Nleu]L[Nlys]L[Nleu]L-NH2) ; retrieve measured MIC S. aureus COL (MRSA) […] 7.4.
32 µg/mL

Need MIC S. aureus COL (MRSA) […] 7.4 of CC(C)C[C@H](NC(=O)[C@H](CCCCN)NC(=O)[C@@H](N)CCCCN)C(=O)N[C@@H](CC(C)C)C(=O)N[C@@H](CCCCN)C(=O)N(CC(=O)N(CC(=O)N(CCCCN)CC(=O)N(CC(=O)N(CC(=O)N(CC(N)=O)CC(C)C)CC(C)C)CC(C)C)CC(C)C)CC(C)C [EB4, KKLLKllklll] (H-KKLLK[Nleu][Nleu][Nlys][Nleu][Nleu][Nleu]-NH2) , thanks.
32 µg/mL

Any idea what its MIC S. aureus COL (MRSA) […] 7.4 is? The molecule is CC(C)C[C@H](NC(=O)CN(CCCCN)C(=O)[C@H](CC(C)C)NC(=O)[C@H](CC(C)C)NC(=O)[C@H](CCCCN)NC(=O)[C@H](CC(C)C)NC(=O)[C@H](CC(C)C)NC(=O)[C@H](CCCCN)NC(=O)CNCCCCN)C(=O)N[C@@H](CC(C)C)C(=O)N(CC(N)=O)CC(C)C [EB2, kKLLKLLkLLl] (H-[Nlys]KLLKLL[Nlys]LL[Nleu]-NH2)
32 µg/mL

Dear colleague, I am looking for the recorded MIC S. aureus COL (MRSA) […] 7.4 of the following molecule: CC(C)C[C@H](NC(=O)[C@H](CC(C)C)NC(=O)[C@H](CC(C)C)NC(=O)[C@@H](CCCCN)NC(=O)[C@H](CC(C)C)NC(=O)[C@H](CC(C)C)NC(=O)[C@@H](CCCCN)NC(=O)[C@H](CC(C)C)NC(=O)[C@H](CC(C)C)NC(=O)[C@@H](CCCCN)NC(=O)[C@H](N)CCCCN)C(N)=O [ln69, kkLLkLLkLLL, reference compound] (H-[dK][dK]LL[dK]LL[dK]LLL-NH2)
2 µg/mL

What does the record list as MIC S. aureus COL (MRSA) […] 7.4 for CC(C)C[C@H](NC(=O)[C@H](CC(C)C)NC(=O)[C@H](CC(C)C)NC(=O)[C@H](CCCCN)NC(=O)[C@H](CC(C)C)NC(=O)[C@H](CC(C)C)NC(=O)CN(CCCCN)C(=O)[C@H](CC(C)C)NC(=O)[C@H](CC(C)C)NC(=O)CN(CCCCN)C(=O)CNCCCCN)C(N)=O [EB6, kkLLkLLKLLL] (H-[Nlys][Nlys]LL[Nlys]LLKLLL-NH2) ?
2 µg/mL

Origin of measurements: paper PMC10714400
